system: NCI-H460 lung; assay: NCI tumour cell line growth inhibition, 48 h
measured-property: TGI

q: // query TGI value for entry "COc1ccc2nc3cccc([N+](=O)[O-])c3c(NCCC(=O)O)c2c1"
a: > 10 µM

q: // query TGI value for entry "NC(=O)c1c[nH]c2ncnc(N)c12"
a: > 100 µM

q: // query TGI value for entry CCN1C(=O)/C(=c2\sc3n(c2=O)C2C(NN=3)N(CC)C(=O)N2CC)c2ccccc21 (configuration not stated)
a: > 100 µM

q: // query TGI value for entry CC(=O)Oc1ccc(C2OC(c3ccc4ccccc4c3OC(C)=O)=NN2C(C)=O)c(OC(C)=O)c1 (configuration not stated)
a: > 36 µM

q: // query TGI value for entry "O=[N+]([O-])C(C(Cl)=C(Cl)Cl)=C(N1CCCCC1)N1CCCCC1"
a: > 100 µM

q: // query TGI value for entry "CCOC(=O)c1c(C)n([O-])c2cc(F)c(F)cc2[n+]1=O"
a: 15.9 µM

q: // query TGI value for entry "COc1cc2c(cc1NC(=O)c1ccccc1)c1c(n2S(=O)(=O)c2ccccc2)CCN(S(=O)(=O)c2ccccc2)C1"
a: > 100 µM

* * *

system: MOLT-4 leukemia; test: NCI tumour cell line growth inhibition, 48 h
Answer each item with its documented TGI.
Express the result in µM but write the number alone.

q: // query TGI value for entry "CCN1CCN(Cc2ccc(NC(=O)Nc3nc(-c4cc(OC)c(OC)c(OC)c4)cs3)cc2C(F)(F)F)CC1"
a: 3.69

q: // query TGI value for entry CCCCCCCCCCCCC(O)C1CCC(C(O)CCCCC(O)CCCCCC2CC(CC(C)=O)C(=O)O2)O1 (stereo not given)
a: 35

q: // query TGI value for entry "CS(=O)(=O)Nc1cc(-c2ccc3ncc(C#N)c(Nc4ccc(F)c(Cl)c4)c3c2)cnc1Cl"
a: 0.487

q: // query TGI value for entry CCCCCCCCCCCCCCCCCCN(C)CC(COC)OP(=O)([O-])OCC[N+](C)(C)C (stereo not given)
a: 11

q: // query TGI value for entry CCC1(c2ccc(OC)c(OC)c2)CCN(S(=O)(=O)c2ccc(C)cc2)C1 (stereo not given)
a: 64.1

q: // query TGI value for entry "C=C1N(C)c2ccc(S(=O)(=O)c3ccc4c(c3)C(C)(C)C(=C)N4C)cc2C1(C)C"
a: 91.7

q: // query TGI value for entry "COc1cccc2nc(Nc3cccc(NC(=O)c4ccc(N5CCN(C)CC5)c(C(F)(F)F)c4)c3)ccc12"
a: 2.27

* * *

test system: OVCAR-4 ovarian; assay: NCI tumour cell line growth inhibition, 48 h; in the data active = GI50 below about 0.43 µM; inactive = the rest
Hello, when you answer, please use one of the following outcomes: y for active, n for inactive

q: // param item: CC(=O)OC(C(=O)[O][Ge]([CH3])([CH3])[CH3])c1ccccc1 (stereo not drawn) ; yields the recorded call
a: n

q: // param item: "CO/N=C(/C)COc1ccc2c(c1)oc(=O)c1cc(OC)ccc12" ; yields the recorded call
a: n

q: // param item: "COc1cccc2nc(Nc3cccc(NC(=O)c4ccc(N5CCN(C)CC5)c(C(F)(F)F)c4)c3)ccc12" ; yields the recorded call
a: n

q: // param item: Cc1ccc(C2=NN(c3ccc(S(=O)(=O)NC(=O)NCc4ccccc4)cc3)C(c3ccc(N(C)C)cc3)C2)c(C)c1 (stereo not drawn) ; yields the recorded call
a: n

q: // param item: "COc1cc(/C=C2\CCC/C(=C\c3cc(CN4CCCC4)c(O)c(OC)c3)C2=O)cc(CN2CCCC2)c1O" ; yields the recorded call
a: n

q: // param item: "COc1ccc(N=Nc2ccc(O)c(=O)cc2)cc1" ; yields the recorded call
a: n

q: // param item: "CC1(C)CC[C@]23CC[C@]4(C)[C@H](CC[C@@H]5[C@@]6(C)CCCNC(C)(C)[C@@H]6CC[C@]54C)[C@H]2[C@H]1OC3" ; yields the recorded call
a: n

q: // param item: "COc1ccccc1CNCCCN1C(=O)c2ccc3c4c(ccc(c24)C1=O)C(=O)N(CCCNCCCCNCCCN)C3=O" ; yields the recorded call
a: y

* * *

Answer each item with its documented log10 of TGI.
system: HCC-2998 colon; test: NCI tumour cell line growth inhibition, 48 h
All values: log10 TGI [µM].

q: // query log10 of TGI value for entry "COc1ccc2nc3c4c(nccc4c2c1)-c1ncccc1C3=O"
a: -0.09

q: // query log10 of TGI value for entry CC(=O)OC(COc1ccc2c(c1)[n+]([O-])nc(N)[n+]2[O-])CN1CCCCC1 (centres undefined)
a: 1.35

q: // query log10 of TGI value for entry "Cc1ccc2ncnc(N(C)C3CCCCC3)c2c1"
a: 1.85

q: // query log10 of TGI value for entry CC(C)(C)N1CC1CNC(=O)C(=O)NCC1CN1C(C)(C)C (centres undefined)
a: 1.17

q: // query log10 of TGI value for entry "C[C@@]12CC[C@@H](O)C[C@@H]1CC[C@H]1[C@H]2CC[C@@]2(C)[C@H](c3ccc(=O)oc3)CC[C@@]12O"
a: -0.85

* * *

tested on: SNB-75 CNS; experiment: NCI tumour cell line growth inhibition, 48 h; in the data active = GI50 below about 0.43 µM; inactive = the rest
Hello, when you answer, please use one of the following outcomes: class 1 for active, class 0 for inactive

q: // param item: "CC(C)c1cnc(-c2cc(Cl)ccc2F)cc1Nc1ccncc1C(=O)NC(CO)CO" ; yields the recorded call
a: class 1

q: // param item: CCCCCCCCCCCCC(O)C1CCC(C(O)CCCCC(O)CCCCCC2CC(CC(C)=O)C(=O)O2)O1 (stereo not given) ; yields the recorded call
a: class 0

q: // param item: "CSC1=CC(=O)c2ccccc2C1=O" ; yields the recorded call
a: class 0

q: // param item: "COc1ccc(-c2cc(=O)c3c(OC)c4ccoc4c(/C=C/C=O)c3o2)cc1" ; yields the recorded call
a: class 0

q: // param item: "NC(=O)c1c[nH]c2ncnc(N)c12" ; yields the recorded call
a: class 0

q: // param item: CCOc1cc(Cl)c(C(C)NC(=O)c2cccc(OC)c2)cc1OCC (stereo not given) ; yields the recorded call
a: class 0

q: // param item: CC(=O)OC(C(=O)[O][Ge]([CH3])([CH3])[CH3])c1ccccc1 (stereo not given) ; yields the recorded call
a: class 0

q: // param item: "CCN1CCN(Cc2ccc(NC(=O)Nc3nc(-c4cc(OC)c(OC)c(OC)c4)cs3)cc2C(F)(F)F)CC1" ; yields the recorded call
a: class 0

q: // param item: "CC(C)C[C@H](NC(=O)[C@@H](Cc1ccccc1)n1ccc(Nc2ccccc2)cc1=O)B(O)O" ; yields the recorded call
a: class 1

q: // param item: "CCOC(=O)c1c(-c2ccccc2)n2c(=O)cc(C)c3c(O)c(O)cc1c32" ; yields the recorded call
a: class 0

* * *

tested on: U251 CNS; test: NCI tumour cell line growth inhibition, 48 h
measured-property: TGI

q: Give recorded TGI with U251 CNS for the following compound: "Cc1cc(O)ccc1C1(c2ccc(O)cc2C)OC(=O)c2ccccc21"
a: 36.6 µM

q: Give recorded TGI with U251 CNS for the following compound: "CCOC(=O)/C(=C\c1c[nH]c2ccccc12)P(=O)(OCC)OCC"
a: > 100 µM

q: Give recorded TGI with U251 CNS for the following compound: CCC1=CC(OCc2ccccc2)C(CCN(Cc2ccccc2)C(=O)OCc2ccccc2)C1 (stereo not given)
a: 62 µM

q: Give recorded TGI with U251 CNS for the following compound: "CN(C)c1n2c3ccc([N+](=O)[O-])cc3n3c(N(C)C)[n+]4ccccc4c3c2c2cccc[n+]12"
a: > 100 µM

q: Give recorded TGI with U251 CNS for the following compound: CC(=O)OCc1nnn2c1C(OC(C)=O)CC2 (stereo not given)
a: > 100 µM

q: Give recorded TGI with U251 CNS for the following compound: CC(=O)OC(C(=O)[O][Ge]([CH3])([CH3])[CH3])c1ccccc1 (stereo not given)
a: > 100 µM

q: Give recorded TGI with U251 CNS for the following compound: CCCCCOC(=O)Nc1nc(=O)n(C2OC(C)C(O)C2O)cc1F (stereo not given)
a: > 10000 µM

q: Give recorded TGI with U251 CNS for the following compound: "O=c1[nH]c(=O)n([C@H]2C[C@@H](CO)[C@@H](O)C2)cc1I"
a: > 100 µM

q: Give recorded TGI with U251 CNS for the following compound: "NS(=O)(=O)c1ccc(N=Nc2c(O)[nH]c3ccc(C(=O)NCCCn4ccnc4)cc23)cc1"
a: > 25 µM

q: Give recorded TGI with U251 CNS for the following compound: "Cc1[nH]c(C(=O)Nc2cccc(OC3CCNCC3)c2)c(Cl)c1Cl"
a: 4.19 µM

* * *

tested on: SF-268 CNS; assay: NCI tumour cell line growth inhibition, 48 h; in the data active = GI50 below about 0.43 µM; inactive = the rest
Hello, when you answer, please use one of the following outcomes: 1 (active), -1 (inactive)

q: // param item: "CC1(C)CC[C@]23CC[C@]4(C)[C@H](CC[C@@H]5[C@@]6(C)CCCNC(C)(C)[C@@H]6CC[C@]54C)[C@H]2[C@H]1OC3" ; yields the recorded call
a: -1

q: // param item: Nc1nc2ccc(CNc3ccc(C(=O)NC(CC(=O)O)C(=O)O)cc3)cc2c(=O)[nH]1 (stereo unspecified) ; yields the recorded call
a: -1

q: // param item: "CS(=O)(=O)N1CCC(Nc2ncc(C(=O)c3c(F)cccc3F)c(N)n2)CC1" ; yields the recorded call
a: -1

q: // param item: "CSC1=CC(=O)c2ccccc2C1=O" ; yields the recorded call
a: -1

q: // param item: "O=S(=O)(NCCNc1nccc(-c2c(-c3ccc(F)cc3)nc3sccn23)n1)c1ccc(O)cc1" ; yields the recorded call
a: -1

q: // param item: "Clc1nc(Cl)c2ncn(-c3ccccc3)c2n1" ; yields the recorded call
a: -1

q: // param item: "COc1ccc(-c2nc3sccn3c2-c2ccnc(NCCNS(=O)(=O)c3ccc(C(F)(F)F)cc3)n2)cc1" ; yields the recorded call
a: -1

q: // param item: "NC(=O)c1c[nH]c2ncnc(N)c12" ; yields the recorded call
a: -1

q: // param item: "Cn1c2c(c3ccccc31)CCN1C[C@@H]3CCCC[C@H]3C[C@@H]21" ; yields the recorded call
a: -1

q: // param item: COC(=O)C1C(C(=O)O)C2(c3ccccc3)C(=O)C1(c1ccccc1)C(c1ccc(OC)cc1)=C2c1ccc(OC)cc1 (stereo unspecified) ; yields the recorded call
a: -1

q: // param item: "Cc1cc(O)ccc1C1(c2ccc(O)cc2C)OC(=O)c2ccccc21" ; yields the recorded call
a: -1

q: // param item: N#CC1=C(N)N=C(N2CCOCC2)C(C#N)C12Nc1ccccc1S2 (stereo unspecified) ; yields the recorded call
a: -1

q: // param item: "CC(C)C[C@H](NC(=O)[C@@H](Cc1ccccc1)n1ccc(Nc2ccccc2)cc1=O)B(O)O" ; yields the recorded call
a: 1

q: // param item: "CS(=O)(=O)Nc1cc(-c2ccc3ncc(C#N)c(Nc4ccc(F)c(Cl)c4)c3c2)cnc1Cl" ; yields the recorded call
a: 1

q: // param item: COc1ccc2c(c1)OCC1c3cc(OC)c4ccccc4c3OC21 (stereo unspecified) ; yields the recorded call
a: -1

q: // param item: "CCc1ccc(Oc2c(-c3ccc(OCCc4cccc(C(F)(F)F)c4)cc3O)n[nH]c2C(F)(F)F)cc1" ; yields the recorded call
a: -1

q: // param item: "COc1cccc2nc(Nc3cccc(NC(=O)c4ccc(N5CCN(C)CC5)c(C(F)(F)F)c4)c3)ccc12" ; yields the recorded call
a: -1

q: // param item: "COc1ccc(N=Nc2ccc(O)c(=O)cc2)cc1" ; yields the recorded call
a: -1

q: // param item: "CC[O-].CC[O-].O=C1C=C([O-])C(=O)c2ccccc21.O=C1C=C([O-])C(=O)c2ccccc21.[Ti+4]" ; yields the recorded call
a: -1

q: // param item: "CCCCCCCCCN=C(N)c1ccc(N2CCN(c3ccc(C(N)=NCCCCCCCCC)cc3)CC2)cc1" ; yields the recorded call
a: -1

q: // param item: "NS(=O)(=O)c1ccc(N=Nc2c(O)[nH]c3ccc(C(=O)NCCCn4ccnc4)cc23)cc1" ; yields the recorded call
a: -1
